target under test: hmGluR4 (Homo sapiens)
Construct: host or cells: HEK293T
Sequence (Q14833 33-912): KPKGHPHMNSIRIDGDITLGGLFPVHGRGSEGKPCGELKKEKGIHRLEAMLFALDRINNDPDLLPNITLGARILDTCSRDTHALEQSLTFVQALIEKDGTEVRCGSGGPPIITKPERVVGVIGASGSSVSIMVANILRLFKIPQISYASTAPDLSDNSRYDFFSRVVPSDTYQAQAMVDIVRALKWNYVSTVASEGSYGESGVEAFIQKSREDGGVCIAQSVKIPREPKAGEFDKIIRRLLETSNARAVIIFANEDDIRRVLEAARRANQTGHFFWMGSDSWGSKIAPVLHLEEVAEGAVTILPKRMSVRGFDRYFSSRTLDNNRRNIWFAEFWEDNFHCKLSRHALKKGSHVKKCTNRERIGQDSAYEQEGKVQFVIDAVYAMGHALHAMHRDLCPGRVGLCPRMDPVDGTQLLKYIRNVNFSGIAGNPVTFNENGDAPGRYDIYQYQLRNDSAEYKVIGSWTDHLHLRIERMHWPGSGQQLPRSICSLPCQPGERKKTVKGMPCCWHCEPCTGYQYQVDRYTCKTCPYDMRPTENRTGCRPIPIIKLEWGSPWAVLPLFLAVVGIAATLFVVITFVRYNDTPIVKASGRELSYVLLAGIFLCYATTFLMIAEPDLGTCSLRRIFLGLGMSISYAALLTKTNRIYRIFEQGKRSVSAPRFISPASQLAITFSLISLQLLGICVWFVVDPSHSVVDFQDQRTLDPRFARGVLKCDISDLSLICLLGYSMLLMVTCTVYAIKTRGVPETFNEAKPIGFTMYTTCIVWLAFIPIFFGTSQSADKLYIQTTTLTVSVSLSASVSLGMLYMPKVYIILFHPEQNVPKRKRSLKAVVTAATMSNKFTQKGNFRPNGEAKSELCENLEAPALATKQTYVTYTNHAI
test name: HEK-293 mGluR4 cells cAMP assay with EC20 L-Glutamate (HTRF)
Type: cell-based
assay setup: positive allosteric activity at EC20 L-Glutamate, 10 μM Forskolin, HEK293T mGluR4 cells, cAMP HTRF; read-out: hrmGluR4/HEK293T-hmGluR4 (EC50)
# EC50 annotations
measurement type: EC50

[[record]]
molecule = "CC(c1ccc(F)c(F)c1)N1CCC2(CC1)Nc1cc(Br)ccc1C(=O)N2c1ccc(OC(F)(F)F)cc1 (stereo not shown)"
measurement_type = "EC50"
value_reported = "< 1 µM"

[[record]]
molecule = "N#Cc1cccc(CN2CCC3(CC2)Nc2cc(C(F)(F)F)ccc2C(=O)N3c2ccc(OC(F)(F)F)cc2)c1"
measurement_type = "EC50"
value_reported = "< 1 µM"

[[record]]
molecule = "N#Cc1ccc2c(c1)NC1(CCN(Cc3ccc(F)c(F)c3)CC1)N(c1ccc(OC(F)(F)F)cc1)C2=O"
measurement_type = "EC50"
value_reported = "1 to 10 µM"

[[record]]
molecule = "O=C1c2ccc(F)cc2NC2(CN(C(c3ccc(F)c(F)c3)C(F)(F)F)C2)N1c1ccc(OC(F)(F)F)cc1 (stereo not shown)"
measurement_type = "EC50"
value_reported = "1 to 10 µM"


Where these numbers come from: patent US9708321B2
